These data points were gathered from ChEMBL document CHEMBL3870335.

# Test system: Klebsiella pneumoniae
# protocol: Antimicrobial activity against Klebsiella pneumoniae ATCC 13883 after 16 to 20 hrs by broth microdilution method
# Format: functional
Where a SMILES comes first, the peptide text is derived from it. [ ]: non-standard residue; d: D form. The star is where a group is joined. NHCH2CH2OH = OCCN*; For = O=C*
measured-parameter: MIC

CC(C)C[C@@H](NC(=O)[C@H](C)NC(=O)CNC(=O)[C@@H](NC(=O)CCS)C(C)C)C(=O)N[C@@H](C)C(=O)N[C@@H](C(=O)N[C@H](C(=O)N[C@@H](C(=O)N[C@@H](Cc1c[nH]c2ccccc12)C(=O)N[C@H](CC(C)C)C(=O)N[C@@H](Cc1c[nH]c2ccccc12)C(=O)N[C@H](CC(C)C)C(=O)N[C@@H](Cc1c[nH]c2ccccc12)C(=O)N[C@H](CC(C)C)C(=O)N[C@@H](Cc1c[nH]c2ccccc12)C(=O)NCCS)C(C)C)C(C)C)C(C)C : > 64 µg/mL

Please tell me: MIC of CC(C)C[C@@H](NC(=O)[C@H](C)NC(=O)CNC(=O)[C@@H](NC(=O)CCSSc1ccc([N+](=O)[O-])c(C(=O)O)c1)C(C)C)C(=O)N[C@@H](C)C(=O)N[C@@H](C(=O)N[C@H](C(=O)N[C@@H](C(=O)N[C@@H](Cc1c[nH]c2ccccc12)C(=O)N[C@H](CC(C)C)C(=O)N[C@@H](Cc1c[nH]c2ccccc12)C(=O)N[C@H](CC(C)C)C(=O)N[C@@H](Cc1c[nH]c2ccccc12)C(=O)N[C@H](CC(C)C)C(=O)N[C@@H](Cc1c[nH]c2ccccc12)C(=O)NCCO)C(C)C)C(C)C)C(C)C , system Klebsiella pneumoniae? > 64 µg/mL

What do you have for CC(C)C[C@@H](NC(=O)[C@H](C)NC(=O)CNC(=O)[C@@H](NC=O)C(C)C)C(=O)N[C@@H](C)C(=O)N[C@@H](C(=O)N[C@H](C(=O)N[C@@H](C(=O)N[C@@H](Cc1c[nH]c2ccccc12)C(=O)N[C@H](CC(C)C)C(=O)N[C@@H](Cc1c[nH]c2ccccc12)C(=O)N[C@H](CC(C)C)C(=O)N[C@@H](Cc1c[nH]c2ccccc12)C(=O)N[C@H](CC(C)C)C(=O)N[C@@H](Cc1c[nH]c2ccccc12)C(=O)NCCO)C(C)C)C(C)C)C(C)C (For-VGA[dL]A[dV]V[dV]W[dL]W[dL]W[dL]W-NHCH2CH2OH) ? > 64 µg/mL

----------
# Tested on: Klebsiella pneumoniae
# protocol: Antimicrobial activity against Klebsiella pneumoniae ATCC 13883 after 16 to 20 hrs by broth microdilution method
# Format: functional
measured-parameter: MIC

CC(=O)N[C@H](C(=O)NCC(=O)N[C@@H](C)C(=O)N[C@H](CC(C)C)C(=O)N[C@@H](C)C(=O)N[C@@H](C(=O)N[C@H](C(=O)N[C@@H](C(=O)N[C@@H](Cc1c[nH]c2ccccc12)C(=O)N[C@H](CC(C)C)C(=O)N[C@@H](Cc1c[nH]c2ccccc12)C(=O)N[C@H](CC(C)C)C(=O)N[C@@H](Cc1c[nH]c2ccccc12)C(=O)N[C@H](CC(C)C)C(=O)N[C@@H](Cc1c[nH]c2ccccc12)C(=O)NCCS)C(C)C)C(C)C)C(C)C)C(C)C : > 64 µg/mL

Query compound follows.
So what does the record say about MIC for CC[C@H]1OC(=O)[C@H](C)[C@@H](O[C@H]2C[C@@](C)(OC)[C@@H](O)[C@H](C)O2)[C@H](C)[C@@H](O[C@@H]2O[C@H](C)C[C@H](N(C)C)[C@H]2O)[C@](C)(O)C[C@@H](C)C(=O)[C@H](C)[C@@H](O)[C@]1(C)O [ERYTHROMYCIN] ? > 64 µg/mL
